# MEASURED_ON: Caspase-3 (Homo sapiens)
# Sequence (P42574 whole entry): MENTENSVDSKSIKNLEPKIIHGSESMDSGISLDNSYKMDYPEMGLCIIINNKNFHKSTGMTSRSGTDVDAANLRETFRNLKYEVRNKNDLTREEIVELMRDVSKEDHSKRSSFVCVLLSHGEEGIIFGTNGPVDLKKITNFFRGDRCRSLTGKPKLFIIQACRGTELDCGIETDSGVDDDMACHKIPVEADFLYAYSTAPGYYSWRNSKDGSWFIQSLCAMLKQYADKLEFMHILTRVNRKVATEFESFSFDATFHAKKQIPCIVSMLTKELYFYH
# Format: functional
The source made the active and inactive calls.
MEASURED_ENDPOINT: IC50

Example molecules with recorded IC50:
# SMILES_STR, DATA_VALUE
measured = [
    ("COc1ccccc1CNC(=O)COc1ccccc1C(=O)c1cnn(-c2ccccc2)c1", "21.9 µM (active)"),
    ("O=C(/C=C/c1ccco1)Nc1ccc(Oc2ccccc2)cc1", "20.5 µM (active)"),
    ("Clc1ccc(-c2nnc(NC3=NCCCCC3)o2)cc1", "15 µM (active)"),
]

# batch: return IC50 for each of the 3 molecules below
1. COc1ccc(S(=O)(=O)Nc2cc(SCC(=O)O)c(O)c3ccccc23)cc1
2. O=C(COC(=O)c1ccc([N+](=O)[O-])s1)Nc1ccccc1
3. COc1cc(Cl)c(NC2=CC(=O)C(=O)c3ccccc32)c(OC)c1

["11.2 µM (active)", "8.76 µM (active)", "28.8 µM (active)"]

* * *

Please provide measured EC50 for the entries that follow.
# MEASURED_ON: Short transient receptor potential channel 4 (Mus musculus, UniProt Q9QUQ5)
# Sequence (Q9QUQ5 whole entry): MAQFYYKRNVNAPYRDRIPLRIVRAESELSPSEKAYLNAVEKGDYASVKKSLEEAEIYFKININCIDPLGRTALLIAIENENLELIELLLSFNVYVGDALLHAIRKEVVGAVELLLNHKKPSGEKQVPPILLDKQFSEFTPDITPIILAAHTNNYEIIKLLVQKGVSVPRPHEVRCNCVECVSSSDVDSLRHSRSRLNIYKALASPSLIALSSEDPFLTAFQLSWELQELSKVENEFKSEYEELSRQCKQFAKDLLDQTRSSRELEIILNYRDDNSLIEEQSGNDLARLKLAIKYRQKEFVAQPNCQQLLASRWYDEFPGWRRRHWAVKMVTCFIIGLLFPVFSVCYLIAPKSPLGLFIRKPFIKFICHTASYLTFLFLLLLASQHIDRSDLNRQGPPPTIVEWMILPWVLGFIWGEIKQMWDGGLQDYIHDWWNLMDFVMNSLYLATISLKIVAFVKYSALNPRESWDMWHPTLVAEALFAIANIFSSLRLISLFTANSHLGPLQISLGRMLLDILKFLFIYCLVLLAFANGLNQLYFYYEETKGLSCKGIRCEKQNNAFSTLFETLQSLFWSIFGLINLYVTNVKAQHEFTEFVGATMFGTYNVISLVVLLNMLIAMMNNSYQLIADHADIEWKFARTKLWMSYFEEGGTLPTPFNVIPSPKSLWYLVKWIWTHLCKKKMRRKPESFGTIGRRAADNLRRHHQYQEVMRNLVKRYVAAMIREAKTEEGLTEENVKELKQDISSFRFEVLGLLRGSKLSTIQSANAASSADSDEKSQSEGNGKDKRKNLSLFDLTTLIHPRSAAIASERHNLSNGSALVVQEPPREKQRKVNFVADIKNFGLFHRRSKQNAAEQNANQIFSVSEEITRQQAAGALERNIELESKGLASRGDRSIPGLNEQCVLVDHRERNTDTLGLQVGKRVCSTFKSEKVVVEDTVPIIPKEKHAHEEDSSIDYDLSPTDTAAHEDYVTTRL
# TEST_DESCRIPTION: mouse TRPC4 channel inhibitors, dose response, cell-based, HEK293 TRPC4/mu-opioid, Fluo-4 calcium (AID 434942);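 also: potency of inhibitors blocking the TRPC4 calcium response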
# Assay type: functional
Activity calls are given as the source filed them.

# COMPOUND, MEASURED_ON, EC50
records = [
    ("CC1CC(C)(C)N(C(=O)CN2C(=O)c3ccccc3C2=O)c2ccccc21 (centres undefined)", "Short transient receptor potential channel 4 (Mus musculus, UniProt Q9QUQ5)", "4.22 µM (active)"),
]

Working through the 8 compounds below one at a time, give EC50 for each.
1. Cc1ccc(C(CNS(=O)(=O)c2ccc([N+](=O)[O-])cc2)N2CCN(C)CC2)cc1 (centres undefined)
2. COc1ccc(SC[C@H](Cc2ccccc2)N2CCN(C)CCC2=O)cc1
3. O=C(NCCCN1CCN(c2cccc(Cl)c2)CC1)C1CCC(=O)N1Cc1ccccc1Cl (centres undefined)
4. CCOc1ccccc1N(C(=O)c1snc(C(N)=O)c1N)C(C(=O)NCc1ccccc1)c1ccc(O)cc1 (centres undefined)
5. CC1CCCN(CCCN2C(=O)C3C(C(=O)Nc4ccc(Cl)cc4)C4C=CC3(O4)C2C(=O)NC2CCCCC2)C1 (centres undefined)
6. Cc1ccc(S(=O)(=O)Nc2cccc(C(=O)NCC(c3ccccc3)N(C)C)c2)cc1F (centres undefined)
7. O=C(O)c1ccc(N/N=C/c2ccc(-c3cccc(Cl)c3)o2)cc1
8. Cc1nc(Cl)c(Cl)n1CCOc1ccccc1

["0.0093 µM (active)", "1.33 µM (active)", "2.99 µM (active)", "4.22 µM (active)", "0.335 µM (active)", "0.267 µM (active)", "4.73 µM (active)", "5.31 µM (active)"]

* * *

# MEASURED_ON: UniProt:P02769
# Sequence (P02769 whole entry): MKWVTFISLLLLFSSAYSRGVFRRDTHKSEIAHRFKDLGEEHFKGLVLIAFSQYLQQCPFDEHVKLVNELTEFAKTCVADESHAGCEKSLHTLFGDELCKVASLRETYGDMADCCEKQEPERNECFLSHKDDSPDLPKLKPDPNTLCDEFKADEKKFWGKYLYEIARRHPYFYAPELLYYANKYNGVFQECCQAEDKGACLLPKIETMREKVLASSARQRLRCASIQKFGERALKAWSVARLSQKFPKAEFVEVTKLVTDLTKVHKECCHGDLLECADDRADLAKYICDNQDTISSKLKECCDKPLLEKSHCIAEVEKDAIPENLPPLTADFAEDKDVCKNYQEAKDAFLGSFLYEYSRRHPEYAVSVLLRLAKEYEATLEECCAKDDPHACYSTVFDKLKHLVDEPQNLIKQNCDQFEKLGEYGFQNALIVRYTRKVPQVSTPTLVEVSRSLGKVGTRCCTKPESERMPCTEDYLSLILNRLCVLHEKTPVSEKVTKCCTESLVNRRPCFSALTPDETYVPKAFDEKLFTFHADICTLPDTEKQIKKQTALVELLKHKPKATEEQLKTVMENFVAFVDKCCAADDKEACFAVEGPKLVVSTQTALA
# TEST_DESCRIPTION: Counterscreen for inhibitors of T-cell receptor (TCR)-CD3 interaction: Fluorescence-based biochemical high throughput dose response assay to identify inhibitors of T-cell receptor (TCR)-CD3 interaction using a TAMRA-labeled BSA probe.
# Type: functional
Activity calls are given as the source filed them.
MEASURED_ENDPOINT: IC50

# SMILES_STR, DATA_VALUE
data = [
    ("CCCCCCn1c(=O)c(C(=O)Nc2ncccc2O)c(O)c2ccccc21", "> 94.2 µM (inactive)"),
]

Field: IC50. Fill in for each record below.
1. O=C(N/N=C/c1cccnc1)c1cc(O)c(O)c(O)c1
2. O=C1COc2ccc(C(=O)COC(=O)/C=C/c3ccc(Br)o3)cc2N1
3. Cc1nc2ccccc2c(=O)n1/N=C/c1cc(Br)cc(Br)c1O

["> 94 µM (inactive)", "> 94.1 µM (inactive)", "> 94.1 µM (inactive)"]

* * *

# MEASURED_ON: UniProt:G5EF15
# Sequence (G5EF15 whole entry, the tested form may be a part): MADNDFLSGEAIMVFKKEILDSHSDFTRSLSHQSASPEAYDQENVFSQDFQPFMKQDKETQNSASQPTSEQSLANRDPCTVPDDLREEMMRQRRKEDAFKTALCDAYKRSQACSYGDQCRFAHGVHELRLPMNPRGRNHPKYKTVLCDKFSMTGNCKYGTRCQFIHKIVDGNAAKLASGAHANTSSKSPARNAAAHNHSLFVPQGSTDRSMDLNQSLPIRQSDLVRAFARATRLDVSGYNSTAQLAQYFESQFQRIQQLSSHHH
# TEST_DESCRIPTION: inhibitors of POS-1/mex-3 RNA binding, dose response, biochemical, fluorescence polarization (AID 1964);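 also: purified POS-1 fused to maltose binding protein made in E. coli; potency of compounds blocking POS-1 binding to fluorescent RNA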
The source made the active and inactive calls.
Could you please report measured EC50 for the items listed next?

# COMPOUND, EC50
data = [
    ("O=C1c2ccccc2-c2onc3ccc(NCc4ccco4)c1c23", "0.173 µM (inconclusive)"),
    ("COc1ccc2nc3cc(Cl)ccc3c(Nc3cc(CN4CCCC4)c(O)c(CN4CCCC4)c3)c2n1", "32.2 µM (active)"),
    ("CCC(=O)OC1(C)C(=O)C=C2C=C(c3ccsc3)OC=C2C1=O (stereo not given)", "34.1 µM (active)"),
    ("CC1(C)CC(=O)C2=C(C1)OC(/N=C/N1CCCC1)=C(C#N)C2c1ccccc1 (stereo not given)", "> 300 µM (not active)"),
]

// switching to the query compound
Please report the recorded EC50 for O=C(N/N=C/c1cccnc1)c1cc(O)c(O)c(O)c1 .
24.8 µM (active)

* * *

Record form. Attribute: EC50. Fill in for each entry.
# System: Streptococcus sp. 'group A'
# TEST_DESCRIPTION: growth inhibition of control SK(-) GAS strain, dose response, counter-screen for streptokinase expression inhibitor project, luminescence, kanamycin, BacTiterGlo, confirmation (AID 1900)
# Format: functional, organism-based
Active and inactive are the calls of the source.

# example entries with known answers
# SMILES_STR, MEASURED_ON, EC50
rows = [
    ("COc1ccc(Cl)cc1C(=O)NNC(=S)NC(=O)c1cc(-c2ccc(Cl)cc2)nc2ccccc12", "Streptococcus sp. 'group A'", "0.202 µM (active)"),
    ("O=C(Nc1ccc(Br)c(C(F)(F)F)c1)c1ccc(C(F)(F)F)cc1", "Streptococcus sp. 'group A'", "1.74 µM (active)"),
    ("CCCOC(=O)c1ccc(Oc2c[nH]nc2-c2ccc(OC)cc2O)cc1", "Streptococcus sp. 'group A'", "8.73 µM (active)"),
    ("COc1ccc(-n2c(=S)[nH]c3cc(C(=O)Nc4ccc(C)c(F)c4)ccc3c2=O)c(OC)c1", "Streptococcus sp. 'group A'", "9.84 µM (active)"),
    ("CCc1nnc(NS(=O)(=O)c2ccc(NC(=S)NC(=O)/C=C/c3ccc(C(C)C)cc3)cc2)s1", "Streptococcus sp. 'group A'", "2.39 µM (active)"),
]

# per-item lookup of EC50; items listed below
1. CCOc1ccc2nc(NC(=O)c3ccccn3)sc2c1
2. COc1ccc(-c2cc(-c3ccc(Cl)cc3)[nH]n2)c(O)c1
3. O=C(CCl)c1ccc(Cc2ncc(C(F)(F)F)cc2Cl)s1

2.98 µM (active)
7.27 µM (active)
4.31 µM (active)

* * *

# MEASURED_ON: Corticotropin-releasing factor receptor 2/Corticotropin-releasing factor-binding protein (Homo sapiens, UniProt P24387+Q13324)
# Sequence (Q13324 whole entry): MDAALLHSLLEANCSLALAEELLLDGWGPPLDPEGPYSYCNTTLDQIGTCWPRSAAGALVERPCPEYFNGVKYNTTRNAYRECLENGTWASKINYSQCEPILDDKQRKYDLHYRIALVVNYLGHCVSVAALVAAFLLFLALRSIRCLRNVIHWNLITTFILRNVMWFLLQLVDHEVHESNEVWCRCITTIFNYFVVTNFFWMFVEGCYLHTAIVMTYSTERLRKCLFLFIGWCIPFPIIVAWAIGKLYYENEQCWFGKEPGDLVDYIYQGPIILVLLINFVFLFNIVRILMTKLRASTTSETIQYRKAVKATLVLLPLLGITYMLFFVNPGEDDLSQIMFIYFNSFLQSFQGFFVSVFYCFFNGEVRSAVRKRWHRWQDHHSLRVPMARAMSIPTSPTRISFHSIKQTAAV
# Sequence (P24387 whole entry): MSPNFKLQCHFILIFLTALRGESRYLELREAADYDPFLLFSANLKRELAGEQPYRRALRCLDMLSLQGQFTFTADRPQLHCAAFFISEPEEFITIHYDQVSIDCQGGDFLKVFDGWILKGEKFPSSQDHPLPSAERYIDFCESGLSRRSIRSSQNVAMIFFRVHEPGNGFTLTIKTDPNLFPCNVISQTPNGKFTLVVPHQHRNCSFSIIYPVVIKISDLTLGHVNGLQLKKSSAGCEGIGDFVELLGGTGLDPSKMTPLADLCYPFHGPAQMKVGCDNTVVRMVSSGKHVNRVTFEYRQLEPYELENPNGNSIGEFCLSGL
# TEST_DESCRIPTION: Dose Response confirmation of uHTS hits for small molecule antagonists of the CRF-binding protein and CRF-R2 receptor complex.
# Format: functional
# CONDITION_PARAMETERS: read-out: IC50_Mean
Active and inactive are the calls of the source.
Answer with one of the outcomes 1.0 (active), 0.0 (inactive)

# example entries with known answers
# COMPOUND, DISCRETE_LABEL
data = [
    ("Cc1cc(C)nc(N=C(N)Nc2ccc(-c3ccccc3)cc2)n1", 0.0),
    ("CC(C)(C)C(=O)NC(=S)NCCc1ccccc1", 0.0),
    ("COc1ccc(OC(=O)c2ccc(Cl)cc2)c(C(C)=O)c1", 0.0),
    ("CC1(C)c2[nH]c3ccccc3c2C[C@H]2C(=O)N(Cc3ccccc3)C(=O)N21", 0.0),
    ("CC1(C)CC(=O)C2=C(C1)OC(/N=C/N1CCCC1)=C(C#N)C2c1ccccc1 (stereo not drawn)", 0.0),
    ("CC(Sc1nnc(Cc2cccs2)n1C1CC1)C(=O)NC1CCS(=O)(=O)C1 (stereo not drawn)", 0.0),
]

Hi, do you know how O=c1[nH]c(=O)n(-c2ccc(F)cc2)c2c1C(C(F)(F)F)(C(F)(F)F)N=C(c1ccc(F)cc1)N2 came out in this test?
1.0

Same for COc1ccc(OCC(O)CN2CCc3ccccc3C2)cc1 (stereo not drawn)
0.0

Ok, now CC(C)(C)c1nc(CN2CCCCC2)cc(CN2CCCCC2)c1O
0.0

Next compound: Cc1cc(C)nc(SCc2ccc(C(=O)NNC(=O)Nc3cccc(Cl)c3)cc2)n1
1.0

Please answer likewise for CCOC(=O)C1CCCN(C(=O)c2cccc(S(=O)(=O)N(Cc3ccccc3)c3ccccc3OC)c2)C1 (stereo not drawn)
0.0

Please answer likewise for CCOC(=O)c1c(-c2ccc(OC)c(OC)c2)csc1NC(=O)C1CCCO1 (stereo not drawn)
1.0

Lookup CCCCn1c(N)c(N(Cc2ccccc2OC)C(=O)c2c(CC)noc2C)c(=O)[nH]c1=O
0.0
